- Tested on: S. aureus RN4220
- protocol: growth inhibition call (relative growth <= 0.2)
- assay conditions: 50 µM
Out of some 39,000 compounds screened, about 500 (1.3%) were called active. Shown is part of a subset that was picked to be rich in actives.
Outcomes: active, inactive

1. C[C@H]1CCCCO[C@@H](CN(C)S(=O)(=O)c2ccccc2)[C@@H](C)CN([C@@H](C)CO)C(=O)c2cc(NC(=O)c3ccccc3)ccc2O1; inactive
2. C[C@H](CO)N1C[C@H](C)[C@H](CN(C)S(=O)(=O)c2cn(C)cn2)Oc2c(NS(=O)(=O)c3ccc(F)cc3)cccc2C1=O; inactive
3. C[C@H](CO)N1C[C@H](C)[C@H](CN(C)Cc2ccc(Cl)c(Cl)c2)Oc2ccc(NC(=O)Nc3ccccc3)cc2CC1=O; inactive
4. CC(C)NC(=O)N(C)C[C@H]1Oc2ccc(NC(=O)NC3CCCCC3)cc2CC(=O)N([C@H](C)CO)C[C@H]1C; inactive
5. FC(F)(F)c1ccc(CSc2c[nH]c3ccccc23)cc1; active
6. Cc1c[nH]c2ccccc12; inactive
7. c1ccc2c(-c3ccncc3)c[nH]c2c1; inactive
8. C[C@H]1CN([C@@H](C)CO)C(=O)c2cc(NS(C)(=O)=O)ccc2O[C@H]1CN(C)S(=O)(=O)c1ccccc1; inactive
9. OCc1c[nH]c2ccccc12; inactive
10. C[C@@H](Oc1ccccc1Cl)c1nc2ccc(Cl)cc2[nH]1; active

* * *

- Tested on: S. aureus RN4220
- protocol: growth inhibition call (relative growth <= 0.2)
- assay conditions: 50 µM
In all, about 39,000 compounds went through this assay and about 500 (1.3%) were called active. The sample as a whole holds a higher share of actives than the screen did.
Outcomes: Y for active, N for inactive

1) Cc1coc2c1C(=O)C(=O)c1c-2ccc2c1CCCC2(C)C; N
2) O=c1[nH]c(=O)n(C2CC(O)C(CO)O2)cc1I (stereo not given); N
3) CC1COC2=C1C(=O)C(=O)c1c2ccc2c1CCCC2(C)C (stereo not given); Y
4) C[C@H](O)C#Cc1cnc2c(c1)C(=O)N([C@@H](C)CO)C[C@@H](C)[C@H](CN(C)Cc1cncnc1)O2; N
5) Clc1ccc(C(Cn2ccnc2)OCc2ccsc2Cl)c(Cl)c1 (stereo not given); Y
6) CN(C)c1cc(CN)ccn1; N
7) Cc1noc(C)c1NC(=O)Nc1ccc2c(c1)C(=O)N([C@H](C)CO)C[C@@H](C)[C@@H](CN(C)C(=O)Nc1c(C)noc1C)OCCCC[C@@H](C)O2; N
8) Clc1ccc(COC(Cn2ccnc2)c2ccc(Cl)cc2Cl)c(Cl)c1.O=[N+]([O-])O (stereo not given); N
9) NC(=O)N1C(=O)[C@H]2[C@H](C1=O)[C@H]1C=C(CCCO)[C@@H]2[C@H](c2cccs2)N1Cc1cc2c(cc1Br)OCO2; N
10) C[C@H]1CN([C@@H](C)CO)S(=O)(=O)c2ccc(Br)cc2O[C@H]1CN(C)S(=O)(=O)c1ccccc1; N
11) Cc1cccc2c3c(ccc12)C1=C(C(=O)C3=O)C(C)CO1 (stereo not given); Y
12) O=C(Nc1ccc(Cl)cc1)Nc1ccc(Cl)c(Cl)c1; Y
13) C[C@@H]1CN([C@H](C)CO)C(=O)Cc2cc(NC(=O)CCCCCC(=O)Nc3ccccc3N)ccc2O[C@H]1CN(C)C(=O)Nc1ccc(F)cc1; N
14) CC(=O)c1c(O)c(C)c(O)c2c1OC1=CC(=O)C(C(C)=O)C(=O)C12C (stereo not given); Y
15) O=c1[nH]c2ccsc2c(=O)n1CCO; N
16) COc1cc(OC)c(C(C)=O)c(O)c1C; N
17) CCC(=O)Nc1ccc(Cl)cc1; N
18) C[C@@H]1CN([C@H](C)CO)C(=O)c2cccc(NC(=O)c3cnccn3)c2O[C@H]1CN(C)S(=O)(=O)c1ccccc1; N
19) C[C@H]1CN([C@@H](C)CO)C(=O)Cc2cc(NS(=O)(=O)c3ccc(F)cc3)ccc2O[C@@H]1CN(C)C(=O)Nc1cccc2ccccc12; N
20) C[C@H](CO)N1C[C@H](C)[C@H](CN(C)S(C)(=O)=O)Oc2ccc(NC(=O)Cn3cnnn3)cc2C1=O; N

* * *

- Test system: S. aureus RN4220
- protocol: growth inhibition call (relative growth <= 0.2)
- assay conditions: 50 µM
In all, about 39,000 compounds went through this assay and about 500 (1.3%) were called active. What follows is part of a selection rich in actives, with near analogues and random picks from the rest.
Outcomes: t for active, f for inactive

1) C[C@@H]1CCCCO[C@H](CN(C)S(=O)(=O)c2ccccc2)[C@@H](C)CN([C@H](C)CO)C(=O)c2cc(NC(=O)Nc3ccc(F)cc3)ccc2O1; f
2) C[C@@H]1CN([C@H](C)CO)C(=O)c2cc(NC(=O)Nc3cccc4ccccc34)ccc2O[C@H]1CN(C)S(=O)(=O)c1ccccc1; f
3) COC1C=COC2(C)Oc3c(C)c(O)c4c(O)c(c5c(nc6cc(C)ccn65)c4c3C2=O)NC(=O)C(C)=CC=CC(C)C(O)C(C)C(O)C(C)C(OC(C)=O)C1C (configuration not stated); t
4) Cc1ccc(S(=O)(=O)N(C)C[C@@H]2OCCCC[C@@H](C)Oc3ccc(NS(C)(=O)=O)cc3C(=O)N([C@H](C)CO)C[C@@H]2C)cc1; f
5) Cc1noc(C)c1S(=O)(=O)Nc1cccc2c1O[C@@H](CN(C)Cc1ccc(C(=O)O)cc1)[C@@H](C)CN([C@H](C)CO)C2=O; f
6) O=C(C[C@@H]1CC[C@@H]2[C@H](COC[C@H](O)CN2S(=O)(=O)c2ccccc2)O1)N1CCOCC1; f
7) COC1=C2C[C@H](C)C[C@H](OC)[C@@H](O)[C@H](C)/C=C(\C)[C@H](OC(N)=O)[C@H](OC)/C=C/C=C(\C)C(=O)NC(=CC1=O)C2=O; f
8) COC1=C2C[C@@H](C)C[C@H](OC)[C@H](O)[C@@H](C)/C=C(\C)[C@H](OC(N)=O)[C@@H](OC)/C=C\C=C(/C)C(=O)NC(=CC1=O)C2=O; f
9) COC1C=COC2(C)Oc3c(C)c(O)c4c(O)c(c(C=NN5CCN(C6CCCC6)CC5)c(O)c4c3C2=O)NC(=O)C(C)=CC=CC(C)C(O)C(C)C(O)C(C)C(OC(C)=O)C1C (configuration not stated); f
10) CO[C@H]1/C=C\O[C@@]2(C)Oc3c(C)c(O)c4c(c3C2=O)[C@]2(C=C(NC(=O)/C(C)=C\C=C/[C@@H](C)[C@@H](O)[C@@H](C)[C@@H](O)[C@@H](C)[C@@H](OC(C)=O)[C@@H]1C)C4=O)OCC(=O)O2; t
11) Cn1cnc(S(=O)(=O)N2C[C@@H](O)COC[C@@H]3O[C@H](CC(=O)NC4CCCC4)CC[C@H]32)c1; f
12) C[C@H](CO)N1C[C@H](C)[C@@H](CN(C)Cc2ccc(C(F)(F)F)cc2)OCCCC[C@H](C)Oc2ccc(NS(=O)(=O)c3cn(C)cn3)cc2C1=O; f

* * *

- Tested on: S. aureus RN4220
- protocol: growth inhibition call (relative growth <= 0.2)
- assay conditions: 50 µM
Among all 39,000 compounds or so, about 500 (1.3%) were called active. Shown is part of a subset that was picked to be rich in actives.
Outcomes: T = active, F = inactive

1. COc1ccc(NC(=O)N(C)C[C@@H]2OCCCC[C@H](C)Oc3ccc(NC(=O)c4ccncc4)cc3C(=O)N([C@H](C)CO)C[C@@H]2C)cc1; F
2. C[C@@H]1CCCCO[C@@H](CN(C)S(=O)(=O)c2cccs2)[C@H](C)CN([C@H](C)CO)C(=O)c2cc(NC(=O)c3ccccc3)ccc2O1; F
3. O=C1CCOC1; F
4. O=C(O)[C@H](O)c1ccccc1; F
5. CO[C@@H]1CN(C)C(=O)c2ccc(NC(=O)Nc3ccc(F)cc3)cc2OC[C@@H](C)N(C(=O)c2ccc(F)cc2)C[C@H]1C; F
6. Cc1onc(-c2ccccc2)c1C(=O)NC1C(=O)N2C1SC(C)(C)C2C(=O)[O-].[Na+] (stereo not drawn); T
7. COc1ccc(S(=O)(=O)Nc2ccc3c(c2)C(=O)N([C@H](C)CO)C[C@@H](C)[C@H](CN(C)Cc2ccc(Cl)c(Cl)c2)OCCCC[C@H](C)O3)cc1; F
8. COC(=O)c1c(-c2c(Cl)cccc2Cl)noc1-c1cnn(-c2cccc(Cl)c2)c1C(F)(F)F; F

* * *

- Test system: S. aureus RN4220
- protocol: growth inhibition call (relative growth <= 0.2)
- assay conditions: 50 µM
Hit rate of the full screen: of about 39,000 compounds, about 500 (1.3%) were called active. The list comes from a sample in which actives are over-represented; it also holds close analogues and randomly drawn compounds.
readout name: growth inhibition call

1) CC[C@H]1OC(=O)C[C@@H](O)[C@H](C)[C@@H](O[C@@H]2O[C@H](C)[C@@H](O[C@H]3C[C@@](C)(O)[C@@H](O)[C@H](C)O3)[C@H](N(C)C)[C@H]2O)[C@@H](CC=O)C[C@@H](C)C(=O)/C=C/C(C)=C/[C@@H]1CO[C@@H]1O[C@H](C)[C@@H](O)[C@@H](OC)[C@H]1OC; active
2) C[C@@H]1CCCCO[C@@H](CN(C)Cc2ccncc2)[C@H](C)CN([C@H](C)CO)C(=O)c2cc(NC(=O)CCC(F)(F)F)ccc2O1; inactive
3) CCC1OC(=O)CC(O)C(C)C(OC2OC(C)C(OC3CC(C)(O)C(O)C(C)O3)C(N(C)C)C2O)C(CC=O)CC(C)C(=O)C=CC(C)=CC1COC1OC(C)C(O)C(OC)C1OC.O=C(O)C(O)C(O)C(=O)O (stereo not given); active
4) Cc1ccc(-c2noc([C@H](C)c3ccc(CC(C)C)cc3)n2)cc1; inactive
5) CC[C@H]1OC(=O)C[C@@H](O)[C@H](C)[C@@H](O[C@@H]2O[C@H](C)C[C@H](N(C)C)[C@H]2O)[C@@H](CC=O)C[C@@H](C)C(=O)/C=C/[C@]2(C)O[C@H]2[C@@H]1C; active
